System: histamine-induced bronchoconstriction
Assay: Effects on histamine-induced bronchoconstriction in anaesthetised guinea pigs
Assay type: in vivo, guinea pig
Details: Cavia porcellus, iv; male anaesthetised guinea pigs; administered via cannulated left jugular vein immediately before histamine; read-out: ED50 (effective dose required to reduce the histamine-induced constriction in lung air volume by 50%)
Structures can show the parent of a compound that is named as a salt.
Reported ED50 values for a set of compounds

[
  {
    "compound": "O=c1c2cc([N+](=O)[O-])ccc2nc2n(CCCCN3CCN(c4cccc(Cl)c4)CC3)cnn12",
    "ED50 (mg/kg)": 0.1
  },
  {
    "compound": "O=c1c2ccccc2nc2n(CCCCN3CCN(c4cccc(Cl)c4)CC3)cnn12 [Example 1 & 2, dihydrochloride]",
    "ED50 (mg/kg)": 0.02
  },
  {
    "compound": "CCOC(=O)N1CCN(CCCCn2cnn3c(=O)c4ccccc4nc23)CC1",
    "ED50 (mg/kg)": 0.05
  },
  {
    "compound": "O=c1c2ccccc2nc2n(CCCN3CCCCC3)cnn12",
    "ED50 (mg/kg)": 0.3
  },
  {
    "compound": "O=c1c2ccccc2nc2n(CCCN3CCN(c4cccc(Cl)c4)CC3)cnn12",
    "ED50 (mg/kg)": 0.03
  },
  {
    "compound": "O=c1c2ccccc2nc2n(CCCCN3CCN(C4CCCCC4)CC3)cnn12",
    "ED50 (mg/kg)": 0.9
  },
  {
    "compound": "O=c1c2ccccc2nc2n(CCCCCN3CCN(c4cccc(Cl)c4)CC3)cnn12",
    "ED50 (mg/kg)": 0.05
  },
  {
    "compound": "O=c1c2ccccc2nc2n(CCCCN3CCC(O)(c4ccccc4)CC3)cnn12",
    "ED50 (mg/kg)": 0.3
  }
]

Provenance of the data: patent US4350695A
